// provenance: PubChem BioAssay (NCI)

- System: NCI-H322M lung
- test-method-notes: NCI-60 one-dose screen, 48 h (100 = growth as untreated, 0 = no growth, -100 = all killed)
- condition-label: 10 µM unless noted
- Protocol: Growth inhibition of the NCI-H322M human Non-Small Cell Lung tumor cell line is measured as a screen for anti-cancer activity. Cells are grown in 96 well plates and exposed to the test compound for 48 hours. Compounds are tested at a single concentration, which is 10^-5 M for most compounds. The reported endpoint is percent growth (GI% or GIPRCNT), where numbers from 0 - 100% represent growth inhibition, and numbers from -100% - 0 represent cell death. […]
About 83,000 compounds went through this panel and 20% of them were active in at least one assay; those are over-represented in the sample as a whole.
Each entry gets f if its growth stays under 90%, and t if its growth is 90% or above.

Worked cases, answers included:
compound	target-of-assay	qualitative-label
Cc1c(F)cccc1NC(=O)c1sc2nc3c(cc2c1N)CCCCC3	NCI-H322M lung	f
COCCNC(C(=O)c1ccccc1)c1ccccc1 (centres undefined)	NCI-H322M lung	t
COc1ccc(SC2c3ccc(O)cc3Oc3nc(N)c(C#N)c(N)c32)cc1 (centres undefined)	NCI-H322M lung	f
CC(C)CNCC(=O)Nc1ccc(Cc2ccc(NC(=O)CNCC(C)C)cc2)cc1	NCI-H322M lung	f
COc1ccc(-c2c(NC(=O)Nc3ccc(Cl)c(C(F)(F)F)c3)cnn2-c2ccc(S(N)(=O)=O)cc2)cc1	NCI-H322M lung	f
CC(CCC(=O)O)[C@H]1CCC2C3C(=O)C[C@@H]4CC(=O)CC[C@]4(C)C3CC(=O)[C@@]21C (some centres undefined)	NCI-H322M lung	t
Nc1ncnc2c1c(-c1ccc(Oc3ccccc3)cc1)nn2C[C@@H]1SSC[C@H]1O	NCI-H322M lung	f
COc1ccc(/C=C/C(=O)c2ccc(-n3cc(CN4CCN(c5cc6c(cc5F)c(=O)c(C(=O)O)cn6C5CC5)CC4)nn3)cc2)cc1OC	NCI-H322M lung	f

Next up:
Req: growth >= 90% for CCCCOc1c(N)cccc1C(=O)OCCN(CC)CC ?
Resp: f
